Give measured Population Pyknosed Nuclei (%) for each item. Keep answers brief.
System: HEK-293T
Assay: Multiplex assay against HEK293T
Type: toxicity, cell-based
Conditions: human, 48 h, 1 µM, compound concentration 1 uM, replicate 2
One number for each entry, in %.

A selection of reference data follows.
{"columns": ["compound_smiles", "experimental_value"],
 "data": [
  ["C=CC(=O)Nc1ccc2ncnc(Nc3ccc(OCc4cccc(F)c4)c(Cl)c3)c2c1.Cc1ccc(S(=O)(=O)O)cc1", 10],
  ["Cc1csc2c(N[C@@H](C)CN3CCN(S(=O)(=O)c4ccc(Cl)c(Cl)c4)CC3)ncnc12", 42]
]}

Could you tell me which Population Pyknosed Nuclei (%) is on file for CN(C)C(=O)/C(C#N)=C/c1ccc(-c2nc3cnc4[nH]ccc4c3n2C2CCCCC2)o1 ?
10

----------
System: HEK-293T
Assay: Multiplex assay against HEK293T
Type: toxicity, cell-based
Conditions: human, 24 h, 10 µM, compound concentration 10 uM, replicate 2
readout: Population Mitotic Cells (%)
Numbers only, in %.

{"columns": ["molecule", "experimental_value"],
 "data": [
  ["c1cn2cc(-c3ccc4cn[nH]c4c3)nc(Nc3ccc(N4CCOCC4)cc3)c2n1", 59],
  ["CN(C)C(=O)N[C@H]1CC[C@H](CCN2CCN(c3cccc(Cl)c3Cl)CC2)CC1.Cl [CARIPRAZINE HYDROCHLORIDE]", 12],
  ["CN(C)C(=O)/C(C#N)=C/c1ccc(-c2nc3cnc4[nH]ccc4c3n2C2CCCCC2)o1", 65],
  ["O=C1NCN(c2ccccc2)C12CCN(CCCOc1ccc(F)cc1)CC2 [SPIRAMIDE]", 78],
  ["Cc1sc2c(c1C)C(c1ccc(Cl)cc1)=N[C@@H](CC(=O)OC(C)(C)C)c1nnc(C)n1-2", 94]
]}

Each of the following entries comes with a recorded value; kindly state Population Mitotic Cells (%) for each.
1. Cc1nc(Nc2n[nH]c3c2CN(C(=O)N[C@H](CN(C)C)c2ccccc2)C3(C)C)c2sccc2n1
2. CC(C)NCC(O)COc1ccc(CCOCC2CC2)cc1.Cl (configuration not stated) [BETAXOLOL HYDROCHLORIDE]

85
52

----------
Test system: U2OS
Assay: Multiplex assay against U2OS
Assay type: toxicity, cell-based
Settings: human, 24 h, 1 µM, compound concentration 1 uM, replicate 2
Give measured Population Mitochondria Different-Phenotype (%) for each item. Keep answers brief.
One number for each entry, in %.

A selection of reference data follows.
{"columns": ["compound_smiles", "experimental_value"],
 "data": [
  ["OC1(c2ccc(Cl)cc2)CCN(Cc2c[nH]c3ccccc23)CC1", 13],
  ["Cc1[nH]c(/C=C2\\C(=O)Nc3ccc(S(=O)(=O)N(C)c4cccc(Cl)c4)cc32)c(C)c1C(=O)N1CCN(C)CC1", 40],
  ["CN(C)CC#Cc1ccc(OCCCc2sc(N3CCc4cccc(C(=O)Nc5nc6ccccc6s5)c4C3)nc2C(=O)O)c(F)c1", 32]
]}

Each of the following entries comes with a recorded value; kindly state Population Mitochondria Different-Phenotype (%) for each.
1. CNc1nc(NCc2ccc(NS(C)(=O)=O)cc2Cl)cc(-c2ccccn2)n1
2. Cc1cc(C)cc(-c2cnc3cc(Cl)c(-c4cccc(O)c4)cc3c2OCCCN)c1
3. c1cn2cc(-c3ccc4cn[nH]c4c3)nc(Nc3ccc(N4CCOCC4)cc3)c2n1
4. Cn1cc(-c2[nH]c3cc(NC(=O)[C@H](N)C4CCCCC4)cc4c3c2C=NNC4=O)cn1
5. COc1ncc(-c2ccc3nccc(-c4ccnnc4)c3c2)cc1NS(=O)(=O)c1ccc(F)cc1F

1. 11
2. 78
3. 15
4. 6
5. 17
